- assay-method-text: viability loss of HPDE-C7K cells – cell-based, fluorescence, HTS, primary screen (AID 431);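 also: 0% = DMSO solvent wells and 100% = doxorubicin-treated wells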
- setup-conditions: HPDE-C7K KRASV12 cells, Alamar Blue viability, 48 h; at 10 µM; hits give high values
The campaign covered roughly 63,000 compounds. About 1,100 (1.7%) were called active. Many of the other results were omitted from the sample, so actives are more common in it than they were. Entries with a potency or affinity are not part of this list.
property: cytotoxicity (%)
Could you give me the number in %? Just the number is fine.

- molecule: "Cc1cc(NC(=O)c2ccc(Cn3nc(C)c(Br)c3C)o2)no1"
  property: "cytotoxicity"
  meas-value: 6.8

# input Give its cytotoxicity value. Item: COC(=O)C(NC(C)=O)(Nc1ccc(Br)cn1)C(F)(F)F (configuration not stated)
# output 2.3

# input What does the record list as cytotoxicity for "COC(=O)C(NC(C)=O)(Nc1ccc(Br)cc1)C(=O)OC" ?
# output 53.3

# input What value of cytotoxicity has been recorded for this entry: O=C(C(Cc1ccccc1)n1cccc1)N1CCc2ccccc21 (configuration not stated)
# output -1.9

# input Param item = "COC(=O)C(NC(C)=O)(Nc1ccccc1)C(=O)OC" ; retrieve measured cytotoxicity.
# output 27.5

# input Value lookup for cytotoxicity; key = "COc1ccccc1-n1nnnc1SCc1ccccc1"
# output -10.6

# input Any idea what its cytotoxicity is? The molecule is "CCOc1ccc(-c2n[nH]c(C)c2-c2ccccc2OC)c(O)c1"
# output -3.5

# input Item under review: "Cc1[nH]c(=O)[nH]c1CN1CCCCC1" . Reported cytotoxicity?
# output -10.3

# input What does the record list as cytotoxicity for CC(NC(=O)CSc1ncccn1)c1ccccc1 (configuration not stated) ?
# output 1.8

# input If you can, please state the reported cytotoxicity value of CCCS(=O)(=O)N1CCCC(C(=O)NCc2ccc3c(c2)OCO3)C1 (configuration not stated) .
# output -6.2

# input I have this molecule here, "O=C(Nc1cccc(NC(=O)N2CCN(c3ccccc3)CC2)c1)N1CCN(c2ccccc2)CC1" , and I need its recorded cytotoxicity.
# output 61.3

# input Give its cytotoxicity value. Item: "CCOC(=O)CCc1c(C)n(CC)c2ncnn2c1=O"
# output 2.5
